meta.source: PubChem BioAssay

Experiment: MM1S myeloma cell viability, profiling panel, resazurin fluorescence, basal, 24 h, PK04 Diversity Set (AID 1174);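 further: MM1S multiple myeloma cell line; test concentration not given here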
Details: higher = more signal, called active from +8 up or from −8 down
observation.type: z-score
When you answer, write just the number.

molecule	measurement
CC1O[C@H]2C3=C(C(=O)[C@@H]4O[C@@H]4[C@H]3O)[C@@H]1C1[C@@H](C)OC=C3[C@H](O)C4O[C@@H]4C(=NOCc4ccccc4)[C@]312 (stereo partly drawn)	-4.85
O=C(NN=C1C[C@@H](O)[C@@H](O)[C@@H]2[C@@H]3C(=O)N(Cc4ccccc4)C(=O)[C@@H]3CC[C@@H]12)OCc1ccccc1	0.0873

API: the following record is the query input.
Give recorded z-score. CCOC(=O)[C@H](Cc1ccccc1)NC(=O)CCC1CC(OC(=O)NCCc2ccc(F)cc2)CC2(CCCC(COC(=O)NCc3ccccc3)O2)O1 (stereo partly drawn) 0.159

---

Experiment: A549 cell viability effects, profiling panel, calcein-AM fluorescence, 48 h, basal (AID 1162); further: test concentration not given here
Conditions: higher = more signal
Rule: z-score under 0.5 gives 0.0, otherwise 1.0.

Does "C=CC[C@@H]1C=C[C@H](ON=C(C)CCC(=O)OC[C@H]2O[C@H](C#Cc3ccccc3)C=C[C@@H]2Oc2ccc(C)cc2)[C@@H](CO)O1" have a reported z-score of at least 0.5? 1.0

Does "C[C@@H](c1ccccc1)N1C(=O)[C@H]2[C@H]3[C@H](O)[C@H](O)CC(=NOCc4ccccc4)[C@H]3CC[C@H]2C1=O" have a reported z-score of at least 0.5? 1.0

---

Molecular target: Torsin-1A-interacting protein 1 (Homo sapiens)
Assay: LAP1 binders from COS7 cell lysate, primary screen, small-molecule microarray, 635/667 nm fluorescence (AID 1116)
Details: COS7-hLAP1 lysate binding, 635 nm fluorescence, higher = more signal
Note: every record was labeled by where its composite z-score sits among class A (below 0.3), class B (0.3 to below 0.5), class C (0.5 or more)

Take a look at these entries with their results.
molecule	class.name
CON=C1[C@H]2CCn3c(=O)n(-c4ccccc4)c(=O)n3[C@H]2[C@H](O)[C@@H]2O[C@H]12	class A
CO[C@@H]1COC(=O)[C@@H](C)COC(=O)[C@@H](C)NC(=O)CC=C[C@@H]1C	class C
C#CCCCON=C1C[C@@H](O)[C@@H](O)[C@@H]2[C@@H]3C(=O)N(C(C)(C)C)C(=O)[C@@H]3CC[C@@H]12	class C
CC(C)(C)N1C(=O)[C@H]2[C@H]3[C@H](O)[C@H](O)CC(=O)[C@H]3CC[C@H]2C1=O	class A
CCOC(=O)[C@H](Cc1ccccc1)NC(=O)CCC1CC(OC(=O)NCc2cccc3ccccc23)CC2(CCCC(COC(=O)NCc3cccc(C(F)(F)F)c3)O2)O1 (some centres undefined)	class B

Bin this entry: CCOC(=O)[C@H](CC(C)C)NC(=O)CCC1CC(OC(=O)NCCc2ccc(F)cc2)CC2(CCCC(COC(=O)NCCOc3ccccc3)O2)O1 (some centres undefined) class C

Bin this entry: "COC(=O)[C@@H]1CC[C@H](C)[C@@H](c2ccc(C)cc2)N1C(=O)c1ccc(C=NO[C@@H](C)c2cn([C@H](CO)Cc3ccccc3)nn2)cc1" class C

Bin this entry: "COc1cccc([C@H]2Oc3ccc(OC)cc3C(=NO[C@@H]3O[C@H](COC(C)=O)[C@@H](OC(C)=O)[C@H](OC(C)=O)[C@H]3OC(C)=O)[C@@H]2O)c1" class A

Bin this entry: "O=C1[C@H]2[C@H]3[C@H](O)[C@H](O)CC(=NOC[C@@H](O)COCc4ccco4)[C@H]3CC[C@H]2C(=O)N1c1ccc(F)cc1F" class B

Bin this entry: "C[C@@H]1NC(=O)[C@@H](C)COC(=O)[C@H](C)NC(=O)[C@@H](C)COC1=O" class A

Bin this entry: "CO[C@@H]1COC(=O)CC=C[C@H](C)[C@H](OC)COC(=O)[C@H](C)NC(=O)CC=C[C@H]1C" class A

Bin this entry: "CCOC(=O)NN=C1C[C@@H](O)[C@@H](O)[C@@H]2[C@@H]3C(=O)N([C@@H](C)c4ccccc4)C(=O)[C@@H]3CC[C@@H]12" class C
